# Tested on: Fibroblast
# TEST: Multiplex assay against human fibroblast
# Type: toxicity, cell-based
# STATED_CONDITIONS: 24 h, 10 µM, compound concentration 10 uM, replicate 1
QUANTITY: Population Membrane Permeable-Phenotype (%)
Please answer using a numeric value trailed by its unit.

# COMPOUND, REPORTED
measured = [
    ("COC(=O)C1=C(C)NC(C)=C(C(=O)OCCCN2CCC(c3ccccc3)(c3ccccc3)CC2)[C@H]1c1cccc([N+](=O)[O-])c1", "27%"),
    ("CNC(=O)Nc1ccc(-c2nc(N3CC4CCC(C3)O4)c3cnn(C4CCC5(CC4)OCCO5)c3n2)cc1", "25%"),
    ("CC1=C(C(=O)Nc2cc3cn[nH]c3cc2F)C(c2ccc(C(F)(F)F)cc2)CC(=O)N1 (configuration not stated)", "22%"),
]

Please look up its Population Membrane Permeable-Phenotype (%): COc1cc2ncn(-c3cc(OCc4ccccc4C(F)(F)F)c(C(N)=O)s3)c2cc1OC [GW843682X]
25%

Then what about the compound C=CC(=O)Nc1cccc(Oc2nc(Nc3ccc(N4CCN(C)CC4)cc3OC)ncc2Cl)c1 ?
3%

Then what about the compound CC(C)(C)NC[C@H](O)COc1nsnc1N1CCOCC1 ?
58%

Then what about the compound CC(C)CC(=O)Nc1[nH]nc2c1CN(C(=O)C1CCN(C)CC1)C2(C)C ?
3%

Then what about the compound CN1CCN(Cc2ccc(Nc3ncc(Cl)c(Nc4ccccc4S(=O)(=O)N(C)C)n3)cc2)CC1 ?
12%

Then what about the compound CCc1ccc(OCc2ccccc2C(=O)Nc2ccc3nc(C)cc(N)c3c2)cc1.Cl ?
16%

Then what about the compound Cc1cccc(CN2CCN(C(c3ccccc3)c3ccc(Cl)cc3)CC2)c1.Cl.Cl (configuration not stated) ?
16%

====

# Test system: U2OS
# TEST: Multiplex assay against U2OS
# Format: toxicity, cell-based
# STATED_CONDITIONS: human, 12 h, 1 µM, compound concentration 1 uM, replicate 2
Could you please mark y for values of Population Tubulin-Different-Phenotype (%) below 20% and n for values at or above it?

# MOLECULE, MEASUREMENT_TARGET, LABEL_VALUE
records = [
    ("O=c1[nH]c2ccccc2n1C1CCN(Cc2ccc(-c3[nH]c4cc5ncnc5cc4nc3-c3ccccc3)cc2)CC1", "U2OS", "n"),
    ("CCCSc1nc(N[C@@H]2C[C@H]2c2ccc(F)c(F)c2)c2nnn([C@@H]3C[C@H](OCCO)[C@@H](O)[C@H]3O)c2n1", "U2OS", "y"),
    ("C[C@]12CC[C@@H]3c4ccc(O)cc4CC[C@H]3[C@@H]1CC[C@@H]2O", "U2OS", "y"),
    ("CC(C)(C)NC[C@H](O)COc1nsnc1N1CCOCC1", "U2OS", "y"),
    ("C=CC(=O)Nc1ccc2[nH]c(=O)n(C3CCN(Cc4ccc(-c5nc6cc[nH]c(=O)c6cc5-c5ccccc5)cc4)CC3)c2c1", "U2OS", "n"),
    ("CNC(=O)Nc1ccc(-c2nc(N3CC4CCC(C3)O4)c3cnn(C4CCC5(CC4)OCCO5)c3n2)cc1", "U2OS", "y"),
]

Moving on to the next molecule.
In the record for COc1ccc(-c2ccc3ncc4c(c3c2)n(-c2ccc(N3CCNCC3)c(C(F)(F)F)c2)c(=O)n4C)cn1.O=C(O)/C=C\C(=O)O , is Population Tubulin-Different-Phenotype (%) less than 20%?
n
